- Tested on: NCI/ADR-RES
- protocol: NCI tumour cell line growth inhibition, 48 h
The source made the active and inactive calls. Cut-off read from the data, not from the text of the source: active = GI50 up to about 1.1 µM and inactive = higher.
Below, each entry is listed alongside its reported GI50.

Consider the following illustrative entries.
O=C1NC(=S)NC(=O)C1=C(O)Nc1ccccc1: 30.5 µM (inactive)
Cc1c(Cl)c(C)c(Cl)c(O)c1Cl: 22.2 µM (inactive)
Cc1nc2c(nc1C)C(=O)c1ccccc1C2=O: 2.87 µM (inactive)
CC1(C)[C@@H](Cn2ccc(=O)[nH]c2=O)CC[C@@]1(C)CO: > 100 µM (inactive)
NC(CCC(=O)O)C(=O)N1CCN(c2nc(N3CCCC3)c3nc(Cl)c(NCc4ccccc4)nc3n2)CC1 (stereo not drawn): 20.8 µM (inactive)
O=C1NNC2NC(=O)C3(NN2C1=O)c1ccccc1-c1ccccc13 (stereo not drawn): > 100 µM (inactive)
N#CCC1COc2ccccc2O1 (stereo not drawn): > 10 µM (inactive)
COc1cc2c(cc1OCCCOc1cc3c(cc1OC)C(=O)N1CCC[C@H]1C(=O)N3)N=C[C@@H]1CCCN1C2=O: 76.7 µM (inactive)

Consider now this further molecule.
Value of measured GI50 for the entry COC(=O)C(Cc1ccccc1)NS(=O)(=O)c1ccc(-c2c3nc(c(-c4ccc(S(=O)(=O)NC(Cc5ccccc5)C(=O)OC)cc4)c4ccc([nH]4)c(-c4ccc(S(=O)(=O)NC(Cc5ccccc5)C(=O)OC)cc4)c4nc(c(-c5ccc(S(=O)(=O)NC(Cc6ccccc6)C(=O)OC)cc5)c5ccc2[nH]5)C=C4)C=C3)cc1 (stereo not drawn) : > 100 µM (inactive)
